Test system: U-937
Test: Cytotoxicity against human U937 cells
Format: ADME, cell-based
IC50 values by entry
Please state the value followed by its unit.

O=C1Nc2c(Br)cc(Br)cc2/C1=N/c1ccccc1    13.7 µM
O=C1Nc2ccccc2C1=O    565 µM
O=C1Nc2ccc(F)cc2C1=O    98.4 µM
O=C1Nc2cc(Br)ccc2C1=O    74.8 µM

Please examine the following record next.
INPUT: Specify the recorded IC50 for O=C1Nc2cc(Br)c(Br)cc2C1=O , system: U-937.
OUTPUT: 11.6 µM

* * *

Test system: U-937
Test: Cytotoxicity against human U937 cells
Format: ADME, cell-based
pIC50: −log10 of the molar value.
// label = label 1 if pIC50 is not less than 4, otherwise label 0

Record excerpt, results attached:
CN1C(=O)C(=O)c2ccccc21    label 0
O=C1Nc2ccc(Br)cc2C1=O    label 1
O=C1Nc2c(Br)cc([N+](=O)[O-])cc2C1=O    label 0
O=C1Nc2ccc(I)cc2C1=O    label 1
O=C1Nc2c(I)cc(I)cc2C1=O    label 1
Oc1[nH]c2ccccc2c1/N=N/c1ccccc1    label 0
COc1ccc2c(c1)C(=O)C(=O)N2    label 0
O=C1Nc2cc(Br)c([N+](=O)[O-])cc2C1=O    label 1

INPUT: Hi, just wondering whether O=C1Nc2cccc(Br)c2C1=O shows pIC50 of 4 or higher.
OUTPUT: label 0

INPUT: Hi, just wondering whether O=C1Nc2c(cc(Br)c(Br)c2Br)C1=O shows pIC50 of 4 or higher.
OUTPUT: label 1

INPUT: Hi, just wondering whether O=C1Nc2c(cc(Br)cc2[N+](=O)[O-])C1=O shows pIC50 of 4 or higher.
OUTPUT: label 0

INPUT: Hi, just wondering whether O=C1Nc2ccc([N+](=O)[O-])cc2C1=O shows pIC50 of 4 or higher.
OUTPUT: label 0
